system: Bacillus anthracis, Sterne 34F2; test: microbe, parasite or virus in culture; format: cell-based; details: STERNE34F2, read-out: MIC B.a.
Structures can show the parent of a compound that is named as a salt.
Recorded MIC, one value per entry.
Field format: number, assumed µg/mL, no unit text.

Some compounds with known MIC results, for comparison:
CN[C@@H]1[C@H](O)[C@H](NC)[C@H]2O[C@]3(O)[C@H](O[C@@H]2[C@H]1O)O[C@H](C)C[C@@]3(O)CNCc1ccccc1 [compound 1, Trihydrochloride]    50
CN[C@@H]1[C@H](O)[C@H](NC)[C@H]2O[C@]3(O)[C@H](O[C@@H]2[C@H]1O)O[C@H](C)C[C@@]3(O)CNCCc1ccc(Cl)cc1 [compound 54, Trihydrobromide]    200

Next:
Ask | Fill in reported MIC for this entry: `CN[C@@H]1[C@H](O)[C@H](NC)[C@H]2O[C@]3(O)[C@H](O[C@@H]2[C@H]1O)O[C@H](C)C[C@@]3(O)CNCc1cccnc1`
Reply | 100

* * *

test system: Proteus vulgaris (ATCC 33420); assay: MIC determination, microbroth dilution; assay type: cell-based; conditions: ATCC33420
Counter-ions that a name gives are not always drawn.
Below, each entry is listed alongside its reported MIC.

Consider the following illustrative entries.
CN[C@@H]1[C@H](O)[C@H](NC)[C@H]2O[C@]3(O)[C@H](O[C@@H]2[C@H]1O)O[C@H](C)C[C@@]3(O)CNCc1ccc(C(F)(F)F)cc1 [compound 5, Trihydrochloride]    > 200 µg/mL
CN[C@@H]1[C@H](O)[C@H](NC)[C@H]2O[C@]3(O)[C@H](O[C@@H]2[C@H]1O)O[C@H](C)C[C@@]3(O)CNCc1ccc(C)cc1C [compound 24, Trihydrochloride]    200 µg/mL
CN[C@@H]1[C@H](O)[C@H](NC)[C@H]2O[C@]3(O)[C@H](O[C@@H]2[C@H]1O)O[C@H](C)C[C@@]3(O)CNCCc1ccccc1 [compound 6, Trihydrochloride]    50 to 100 µg/mL

Now look at this entry.
Ask | Give the value of MIC reported for the following: `CN[C@@H]1[C@H](O)[C@H](NC)[C@H]2O[C@]3(O)[C@H](O[C@@H]2[C@H]1O)O[C@H](C)C[C@@]3(O)CNCc1ccccn1`
Reply | > 200 µg/mL

* * *

tested on: Proteus vulgaris (ATCC 33420)
Counter-ions that a name gives are not always drawn.
resultType: MIC

Reference set, count: 2
CN[C@@H]1[C@H](O)[C@H](NC)[C@H]2O[C@]3(O)[C@H](O[C@@H]2[C@H]1O)O[C@H](C)C[C@@]3(O)CNCc1ccccc1 [compound 1, Trihydrochloride]    200 µg/mL
CN[C@@H]1[C@H](O)[C@H](NC)[C@H]2O[C@]3(O)[C@H](O[C@@H]2[C@H]1O)O[C@H](C)C[C@@]3(O)CNCCc1cccs1 [compound 61, trihydrobromide]    100 to 200 µg/mL

Let us examine a further case.
Ask | Determine reported MIC for CN[C@@H]1[C@H](O)[C@H](NC)[C@H]2O[C@]3(O)[C@H](O[C@@H]2[C@H]1O)O[C@H](C)C[C@@]3(O)CNCCc1ccc(C(F)(F)F)cc1 [compound 58, Trihydrochloride] ; test system: Proteus vulgaris (ATCC 33420).
Reply | 200 µg/mL

Measured values drawn from patent US10266544B2 for this set.
